# assay-protocol: MM1S cell viability effects, profiling panel, calcein-AM fluorescence, 48 h, basal (AID 1165);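 also: viability of MM1S multiple myeloma cells under basal unstimulated conditions; test concentration not given here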
# reported-conditions: higher = more signal
Entry flag: 1.0 if z-score reaches -0.3; 0.0 if it does not.

compound	class-label
C=CCNC(=O)[C@H]1[C@@H]2C(=O)O[C@@H](c3ccccc3)[C@@H](c3ccccc3)N2[C@@H](c2ccccc2OCCO)[C@]12C(=O)N(C(=O)OCCOC)c1ccc(C#CCC(C(=O)OC)C(=O)OC)cc12	0.0
CC(=O)NCCCC[C@@H]1NC(=O)[C@@H]2C[C@H](C(=O)NCCCCCCN(C)C)[C@H](c3ccc(O)cc3)N2C1=O	0.0
O=C(CS)NCCCCCCNC(=O)[C@@H]1C[C@@H]2C(=O)N[C@@H](Cc3ccccc3)C(=O)N2[C@@H]1c1ccc(O)cc1	1.0
C=CCc1cccc([C@@H]2[C@@H](C)CC[C@H]3C(=O)N4[C@H](c5cccc(CC=C)c5)[C@@H](C)CC[C@H]4C(=O)N23)c1	0.0
CCOC(=O)C[C@H]1[C@H](OC(=O)c2ccccc2-c2ccccc2)[C@@H](NC(=O)c2ccc(-c3ccccc3)cc2)c2cc(OCCCO)ccc2N1C(=O)Cc1ccc(OC)cc1	1.0
Cc1ccc([C@@H]2CC=C(C(=O)O)[C@H](c3ccccc3)N2S(=O)(=O)c2ccc(C)cc2)cc1	1.0
CN1C2C=C(c3ccc(CO)cc3)C(C3C(=O)N(C(N)=O)C(=O)C32)C1c1cccs1 (centres undefined)	1.0
CN1C(=O)C2C=CC(C(O)C3CC=CCC3)N(Nc3ccccc3)C2C1=O (centres undefined)	1.0
COc1ccc(C(O)C2C=CC3C(=O)N(C)C(=O)C3N2N2CCCCC2)cc1OCc1ccccc1 (centres undefined)	1.0
O=C1c2ccccc2[C@](Cc2ccccc2I)(C(=O)NCC(F)(F)F)[C@H](c2ccc(CO)cc2)N1Cc1ccccc1C(F)(F)F	0.0
CO[C@@H]1COC(=O)[C@H](COCc2ccccc2)NC(=O)CC=C[C@@H](C)[C@H](OC)COC(=O)[C@H](COCc2ccccc2)NC(=O)CC=C[C@H]1C	1.0
O=[N+]([O-])c1ccc(C[n+]2ccc3ccc(O)cc3c2)o1	1.0
C=CCC(OC(C)=O)[C@@H]1[C@@H](N(Cc2cc3ccccc3o2)C(=O)c2ccc(C)cc2)c2cc(OCCCO)ccc2N1C(=O)c1ccc2ccccc2n1 (some centres undefined)	1.0
O=C(N1CCCCC1)[C@@]1(CCS(=O)(=O)c2ccccc2)N=C(c2ccc(OCCCO)cc2)O[C@H]1c1ccccc1	0.0
